Attribution: ChEMBL document CHEMBL1201862

- Test system: SK-MEL-2
- test.name: NCI tumour cell line growth inhibition, 48 h
Activity calls are given as the source filed them. Cut-off read from the data, not from the text of the source: active = GI50 up to about 1.1 µM and inactive = higher.

{"compound": "COc1ccc(N(C(=O)Nc2ccc(Cl)c(Cl)c2)C2c3cccn3C(=O)N2c2ccc(Cl)c(Cl)c2)cc1 (centres undefined)", "GI50": "> 100 µM (inactive)"}
{"compound": "OCCSCC/C(=N\\N=C(/CCSCCO)c1ccccc1)c1ccccc1", "GI50": "84.7 µM (inactive)"}
{"compound": "COC(=O)C1=C(O)C(C(=O)OC)[C@]2(O)[C@H](C(=O)OC)[C@H]1C[C@@H](c1ccc([N+](=O)[O-])cc1)[C@H]2C(=O)OC (some centres undefined)", "GI50": "18.4 µM (inactive)"}
{"compound": "C/C(=N/NC(N)=S)C(CN(C)C)C(C1=C(O)c2ccccc2OC1)c1ccccc1 (centres undefined)", "GI50": "> 100 µM (inactive)"}

###

Catalogue of GI50 readings, one per entry.
- System: SF-295
- test.name: NCI tumour cell line growth inhibition, 48 h
The source made the active and inactive calls. No stated cut-off is given here; in the data, active = GI50 up to about 1.1 µM and inactive = higher.

{"molecule": "C#CCNC(=O)NCCCC(NC(C)=O)C(=O)NCc1ccccc1 (centres undefined)", "GI50": "> 100 µM (inactive)"}
{"molecule": "CO[C@H](C)[C@](O)(C(=O)OCC1=CCN2CC[C@@H](O)[C@H]12)C(C)C", "GI50": "> 100 µM (inactive)"}
{"molecule": "O=C(/C=C1/Nc2ccc([N+](=O)[O-])cc2N/C1=C/C(=O)c1ccccc1)c1ccccc1", "GI50": "15 µM (inactive)"}
{"molecule": "CSC(C1c2ccccc2N(c2ccc(C)cc2)c2[nH]c(=O)n(C)c(=O)c21)S(=O)(=O)c1ccc(C)cc1 (centres undefined)", "GI50": "> 100 µM (inactive)"}
{"molecule": "COC(=O)NC1(NC(=O)OC)NC(=O)c2cc(OC)c(OC)cc2N1", "GI50": "23.6 µM (inactive)"}
{"molecule": "CC1=NN(c2cccc(Cl)c2)C2(C1=Cc1ccc(O)cc1)C(Cl)C(=O)N2c1nc2ccccc2s1 (centres undefined)", "GI50": "21.5 µM (inactive)"}
{"molecule": "O=c1c2cc([N+](=O)[O-])ccc2n2n1Cc1ccccc1CC2", "GI50": "> 100 µM (inactive)"}
{"molecule": "COc1ccc(N2C(=O)C3c4[nH]c5ccc(C)cc5c4C4CCC(C(C)C)CC4C3C2=O)cc1 (centres undefined)", "GI50": "> 100 µM (inactive)"}
{"molecule": "C1COCCN1.CN(C)c1ccc(-c2c(C#N)c(N)nc(S)c2C#N)cc1", "GI50": "61 µM (inactive)"}
{"molecule": "Cc1ccc(NC(=O)C(=O)C(C2C(C)CC(=O)C2CC(=O)O)[N+](=O)[O-])cc1 (centres undefined)", "GI50": "> 100 µM (inactive)"}
{"molecule": "Cn1c(=O)oc2cc(C(O)CN3CCN(Cc4ccccn4)CC3)c(Cl)cc21 (centres undefined)", "GI50": "> 100 µM (inactive)"}
{"molecule": "COc1ccc2c(c1)CCN1CCCc3ccc(OC)cc3C21 (centres undefined)", "GI50": "24.6 µM (inactive)"}
{"molecule": "CC/N=C(/C#N)NCC", "GI50": "> 100 µM (inactive)"}
{"molecule": "O=c1[nH]c(=O)n(C2CC(O)C(CO)O2)cc1C1=NC1 (centres undefined)", "GI50": "> 100 µM (inactive)"}
{"molecule": "C=C1C(=O)O[C@@H]2C[C@@H](C)[C@@H]3C=CC(=O)[C@@]3(C)[C@@H](OC(=O)CCCC(=O)O[C@H]3[C@@H]4C(=C)C(=O)O[C@@H]4C[C@@H](C)[C@@H]4C=CC(=O)[C@]43C)[C@H]12", "GI50": "0.989 µM (active)"}
{"molecule": "CN(C)C(=S)S [SODIUM DIMETHYLCARBAMODITHIOATE]", "GI50": "> 80.2 µM (inactive)"}
{"molecule": "Clc1ccc(COC(Cn2ccnc2)c2ccc(Cl)cc2Cl)c(Cl)c1 (centres undefined) [MICONAZOLE NITRATE]", "GI50": "10.8 µM (inactive)"}
{"molecule": "CC(N)Cc1cccc(C(F)(F)F)c1 (centres undefined)", "GI50": "> 100 µM (inactive)"}
{"molecule": "CCOC(=O)C1(NC(=O)OC(C)(C)C)CCc2[nH]oc(=O)c2C1 (centres undefined)", "GI50": "> 100 µM (inactive)"}

###

- Test system: TK-10
- test.name: NCI tumour cell line growth inhibition, 48 h
Activity calls are given as the source filed them. Rule as the data show it: active = GI50 up to about 1.1 µM and inactive = higher.
Possible outcomes: 1 = active, -1 = inactive

{"compound": "Cc1ccc2c(c1)c(=O)c1c(NCCN(C)C)ccc3nnn2c31", "label": -1}
{"compound": "Cn1c(C2CCCc3c2c2ccccc2n3C)cc2ccccc21 (configuration not stated)", "label": -1}
{"compound": "O=C(Nc1nc2ncn(CCO)c2c(=S)[nH]1)c1ccccc1", "label": -1}
{"compound": "O=C1C=CC(=O)C(CNc2ccc(C(=O)OC34CC5CC(CC(C5)C3)C4)cc2)=C1Br", "label": -1}
{"compound": "c1ccc(OC2=NC3=S(S2)SC(Oc2ccccc2)=N3)cc1", "label": -1}
{"compound": "O=C(c1c(Cl)cc(Cl)cc1Cl)N(Cc1cccnc1)C(=S)N(Cc1cccnc1)C(=O)c1c(Cl)cc(Cl)cc1Cl", "label": -1}
{"compound": "COc1cccc(Cc2cc(=O)c3ccc(C)nc3[nH]2)c1", "label": -1}
{"compound": "O=C(O)/C=C/C=C/c1ccc2c(c1)OCO2", "label": -1}
{"compound": "CSC1=C(C#N)C(=O)N(c2ccc(Cl)cc2)C(=O)C1C#N (configuration not stated)", "label": -1}
{"compound": "Cc1ccn2c(=O)cc(-c3ccccc3)nc2c1", "label": -1}
{"compound": "CC(=O)O[C@H]1C(=O)[C@@]2(C)C(C(OC(=O)c3ccccc3)[C@]3(O)CC(OC(=O)C(O)C(NC(=O)c4ccccc4)c4ccc(F)cc4)C(C)=C1C3(C)C)[C@]1(OC(C)=O)CO[C@@H]1C[C@@H]2O (some centres not stated)", "label": 1}
{"compound": "CC(C)CC(NC(=O)C(C)(CI)Cc1ccccc1)C(=O)Nc1ccccc1 (configuration not stated)", "label": -1}
{"compound": "O=C1C(c2ccccc2)=[N+]([O-])c2ccccc21", "label": -1}
{"compound": "CCn1c(=O)c2c3cc(O)ccc3oc2c2ccc(O)cc21", "label": -1}
{"compound": "Cc1cccc(C)c1N1C(=O)C(=O)C(c2nc3ccccc3s2)/C(=N\\N)C1=O (configuration not stated)", "label": -1}
{"compound": "CCCCCCCCCCCC(=O)CC(=O)c1c(O)cccc1O", "label": -1}
{"compound": "C=CC1CN(C(=O)OCC)N(C(=O)OCC)C1CCc1ccccc1 (configuration not stated)", "label": -1}
{"compound": "COc1cc2[nH]c(=O)c3cc(C)cc4c(Cl)nc(c1OC)c2c43", "label": -1}
{"compound": "COc1cccc(-c2cc(O)c3cc(NC(C)=O)ccc3n2)c1", "label": -1}
{"compound": "O=C1C=C2CCCC2C(C(=O)O)(C(=O)O)C1 (configuration not stated)", "label": -1}
{"compound": "[O-][N+]1=C2CCC/C(=N/O)C2(O)C2CCCCC21N1CCOCC1 (configuration not stated)", "label": -1}
{"compound": "NC(=O)SCC(=O)Nc1ccc2ncccc2c1", "label": -1}

###

- Test system: NCI-H460
- test.name: NCI tumour cell line growth inhibition, 48 h
The source made the active and inactive calls. Cut-off read from the data, not from the text of the source: active = GI50 up to about 1.1 µM and inactive = higher.
Catalogue of GI50 readings, one per entry.

{"compound": "O=c1[nH]c2nccn2c(Cl)c1Br", "GI50": "24.7 µM (inactive)"}
{"compound": "O=C(O)C1CCC(=O)N1C(=O)C(Cl)c1ccccc1 (stereo unspecified)", "GI50": "> 100 µM (inactive)"}
{"compound": "COc1ccc2nc(-c3ccc(N)cc3)sc2c1", "GI50": "54 µM (inactive)"}
{"compound": "CCCCCCCCCCCCCCCCCC(CCCCCCCCCCCCCCCCC)OP(=O)(O)O", "GI50": "> 100 µM (inactive)"}
{"compound": "C#Cc1ccccc1N1C(=O)C=CC1=O", "GI50": "> 100 µM (inactive)"}
{"compound": "COCOc1cc(OC)c(Br)cc1C/C(=N/O)C(=O)OC", "GI50": "71.9 µM (inactive)"}
{"compound": "CC(C)(C)C1CCC2c3c([nH]c4ccccc34)C3C(=O)N(c4ccc5c(c4)C(=O)c4ccccc4C5=O)C(=O)C3C2C1 (stereo unspecified)", "GI50": "> 100 µM (inactive)"}
{"compound": "Cn1c(=O)c2c(nc3sc4ccccc4c(=O)n32)n(C)c1=O", "GI50": "> 100 µM (inactive)"}
{"compound": "Cc1ccc(S(=O)(=O)OC2CCN(C)CC2)cc1", "GI50": "> 100 µM (inactive)"}
{"compound": "COc1ccc(/C=C2\\CN(C)C/C(=C\\c3ccc(OC)cc3)C2=O)cc1", "GI50": "> 100 µM (inactive)"}
{"compound": "C=C(CCC(=O)N(CCc1c[nH]c2ccccc12)C(=O)c1ccccc1CSCC)C(=O)OC", "GI50": "32.2 µM (inactive)"}
